# Procedure Summary: Half life in rat at 1 mg/kg, iv
# Format: ADME, organism-based
# Reported Conditions: in vivo
Readout: half-life
Give the value; after it, write the unit.

INSERT INTO results (query_smiles, readout, data_value) VALUES
  ('COc1ccc(Oc2ccnc3cc(-c4cnn(C5CCNCC5)c4)ccc23)cc1', 'half-life', '10.7 h');

Take each entry in turn and give its half-life.
1. Oc1ccc(Oc2ccnc3cc(-c4cnn(C5CCNCC5)c4)ccc23)cc1
2. Cc1ccc(Oc2ccnc3cc(-c4cnn(C5CCNCC5)c4)ccc23)cc1

Return:
1: 3.5 h; 2: 3.3 h

---

Can you tell me AUC(0-t) for the items I'm about to list?
# Procedure Summary: AUClast in rat at 1 mg/kg, iv
# Format: ADME, organism-based
# Design: dose 1 mg/kg, time 0 - last, route intravenous
# Reported Conditions: in vivo

// known answers, use as guide
INSERT INTO measurements (query_smiles, readout, data_value) VALUES
  ('COc1ccc(Oc2ccnc3cc(-c4cnn(C5CCNCC5)c4)ccc23)cc1', 'AUC(0-t)', '95.9 ng·h/mL'),
  ('Oc1ccc(Oc2ccnc3cc(-c4cnn(C5CCNCC5)c4)ccc23)cc1', 'AUC(0-t)', '155 ng·h/mL');

Next item in the queue.
The molecule Cc1ccc(Oc2ccnc3cc(-c4cnn(C5CCNCC5)c4)ccc23)cc1 showed AUC(0-t) equal to 166 ng·h/mL

---

# Procedure Summary: Tmax in rat at 10 mg/kg, po
# Format: ADME, organism-based
# Reported Conditions: in vivo
Readout: Tmax (h)
Numbers only, in h.

// known answers, use as guide
INSERT INTO results (query_smiles, data_value) VALUES
  ('Oc1ccc(Oc2ccnc3cc(-c4cnn(C5CCNCC5)c4)ccc23)cc1', 6),
  ('Cc1ccc(Oc2ccnc3cc(-c4cnn(C5CCNCC5)c4)ccc23)cc1', 4);

Next item in the queue.
The compound COc1ccc(Oc2ccnc3cc(-c4cnn(C5CCNCC5)c4)ccc23)cc1 showed Tmax equal to 4

---

# Procedure Summary: Tmax in rat at 1 mg/kg, iv
# Format: ADME, organism-based
# Reported Conditions: in vivo
Readout: Tmax (min)
Give bare numbers, in min.

INSERT INTO results (query_smiles, data_value) VALUES
  ('Cc1ccc(Oc2ccnc3cc(-c4cnn(C5CCNCC5)c4)ccc23)cc1', 6),
  ('COc1ccc(Oc2ccnc3cc(-c4cnn(C5CCNCC5)c4)ccc23)cc1', 6);

Next item in the queue.
The molecule Oc1ccc(Oc2ccnc3cc(-c4cnn(C5CCNCC5)c4)ccc23)cc1 showed Tmax equal to 6
